tested on: YSK4; construct: gene MAP3K19; conditions: concentration: 1 μM,replicates: in singlicate; n = 1;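 note: KINOMEscan kinase panel screen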

compound: CN(c1ccccc1CNc1nc(Nc2ccc3c(c2)CC(=O)N3)ncc1C(F)(F)F)S(C)(=O)=O
measured on: YSK4
units: %
%Inh: 91.4

compound: O=C(NCC1CC1)c1ccc(-c2cc(C(=O)NC3CC3)ccc2F)cc1 [GW810445]
measured on: YSK4
units: %
%Inh: 6

compound: CC(C)S(=O)(=O)N1CCN(Cc2ccc3c(c2)nc(NC(=O)c2ccsc2)n3C[C@H](O)c2ccccc2)CC1 [GW635815]
measured on: YSK4
units: %
%Inh: 90.6

compound: O=C(Nc1n[nH]c2cc(-c3ccco3)ccc12)C1CC1 [SB-737447]
measured on: YSK4
units: %
%Inh: 96.2

compound: CS(=O)c1ccc(-c2coc3ccc(-c4n[nH]c(=O)o4)cc23)cc1 (stereo not shown)
measured on: YSK4
units: %
%Inh: 55

compound: Cc1n[nH]c2cc(Nc3ccnc(Nc4cccc(CN5CCOCC5)c4)n3)ccc12 [GW682569]
measured on: YSK4
units: %
%Inh: 90

compound: O=C(Nc1ccc(Oc2ccc3nc(NC(=O)C4CC4)cn3n2)c(F)c1)c1cccn(-c2ccccc2)c1=O
measured on: YSK4
units: %
%Inh: 0

This collection of values is drawn from paper PMC5540273.
